System: U-251
assay_protocol: NCI tumour cell line growth inhibition, 48 h
Activity calls are given as the source filed them. No stated cut-off is given here; in the data, active = GI50 up to about 1.1 µM and inactive = higher.
outcome_measure: GI50

The examples below pair each entry with its known result.
[[record]]
compound = "O=C1Nc2ccc(Br)cc2C1=Nc1cccnc1"
outcome_measure = "GI50"
value_measured = "12.4 µM (inactive)"

[[record]]
compound = "CC1=CSC(O)(c2ccc(Cl)cc2)c2noc(=O)n21 (stereo not given)"
outcome_measure = "GI50"
value_measured = "> 10 µM (inactive)"

[[record]]
compound = "Cn1c(=O)oc2cc(C(=O)CN3CCN(Cc4ccc5c(c4)OCO5)CC3)c(Cl)cc21"
outcome_measure = "GI50"
value_measured = "> 100 µM (inactive)"


Below is a list of compounds. For each, state its recorded GI50.
1. CC(C)NC(=O)OCCN=c1c2ccccc2ccc2ccccc12
2. CN(CCN)[C@H](CSSC[C@@H](c1ccccc1O)N(C)CCN)c1ccccc1O

1. 38.3 µM (inactive)
2. 15.9 µM (inactive)
